system.name: SIRT1 (Homo sapiens, UniProt Q96EB6)
Sequence (Q96EB6 whole entry): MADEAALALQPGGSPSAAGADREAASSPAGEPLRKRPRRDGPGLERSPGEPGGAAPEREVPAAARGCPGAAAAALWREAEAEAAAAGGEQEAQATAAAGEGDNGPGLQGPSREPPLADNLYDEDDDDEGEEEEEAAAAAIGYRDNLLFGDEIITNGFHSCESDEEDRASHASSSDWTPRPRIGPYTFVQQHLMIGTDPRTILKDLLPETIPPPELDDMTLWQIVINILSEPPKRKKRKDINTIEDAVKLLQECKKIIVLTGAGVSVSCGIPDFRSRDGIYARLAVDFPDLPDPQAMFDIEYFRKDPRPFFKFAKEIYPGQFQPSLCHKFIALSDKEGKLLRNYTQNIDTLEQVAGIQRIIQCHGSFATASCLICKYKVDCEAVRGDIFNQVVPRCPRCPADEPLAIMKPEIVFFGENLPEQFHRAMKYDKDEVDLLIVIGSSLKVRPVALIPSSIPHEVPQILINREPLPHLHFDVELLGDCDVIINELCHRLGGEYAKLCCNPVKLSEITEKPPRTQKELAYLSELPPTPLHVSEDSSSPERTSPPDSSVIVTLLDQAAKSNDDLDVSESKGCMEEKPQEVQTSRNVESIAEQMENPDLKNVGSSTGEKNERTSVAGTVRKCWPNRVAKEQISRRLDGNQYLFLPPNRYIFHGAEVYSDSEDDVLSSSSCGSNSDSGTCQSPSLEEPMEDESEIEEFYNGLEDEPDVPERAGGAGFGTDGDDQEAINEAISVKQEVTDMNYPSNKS
method.summary: TAMRA based mass spectrometry assay of SIRT1 activity
Type: biochemical
assay.setup: TAMRA assay; concentration giving 150% activation of SIRT1

smiles.text: CCOc1ccc(NC(=O)c2c(C)nc3ccc(-c4ccccc4Cl)nn23)nn1
TAMRA EC1.5 (μM): A (EC1.5<1 μM)
--
smiles.text: Cc1nc(C(=O)Nc2cnn3ccc(-c4ccccc4OC(F)(F)F)nc23)cs1
TAMRA EC1.5 (μM): B (EC1.5 1-25 μM)
--
smiles.text: O=C(Nc1cnn2ccc(-c3ccccc3OC(F)(F)F)nc12)c1cnc(O)cn1
TAMRA EC1.5 (μM): B (EC1.5 1-25 μM)
--
smiles.text: Cc1nccc(NC(=O)c2c(C)nc3c(C)cc(-c4ccccc4C(F)(F)F)nn23)n1
TAMRA EC1.5 (μM): A (EC1.5<1 μM)
